assay-info: PET hydrolysis, aromatic products released after 48 h (umol product/mg enzyme); higher = more PET depolymerization activity
particulars: substrate: aFilm; 60 °C; pH 4.5
assay-metric: PET hydrolysis

- ordered-residues: "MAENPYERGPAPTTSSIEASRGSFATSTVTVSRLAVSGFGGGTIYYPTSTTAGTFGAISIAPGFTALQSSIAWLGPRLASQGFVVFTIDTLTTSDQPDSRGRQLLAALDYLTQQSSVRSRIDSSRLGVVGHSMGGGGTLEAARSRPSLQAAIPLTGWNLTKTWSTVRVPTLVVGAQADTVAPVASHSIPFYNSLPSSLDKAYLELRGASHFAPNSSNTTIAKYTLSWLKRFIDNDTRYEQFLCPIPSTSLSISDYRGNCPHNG [TEP182]"
  PET hydrolysis: "< 3"

What value of PET hydrolysis has been reported for the following sequence? AEAADNPYQRGPDPTLASVAATRGPFATAQATVPAGNGFNGGYVYYPTDTSLGTWGAVAIVPGYSALFADEEAWMGPWLASFGFVVLGIETNSRTDGADARATQLLAALDYLTQSSPVRHRVDANRLGVMGHSAGGAGTLMAALRRPSLKSAVGLAPGAPGNSLNMSTTQVPTMLISGQNDGTVTPSYVQGIYNTLPATVEHAWAELAGNDHLSFTRPNPTEMRILIPWLKIFLDNDTRYTQFLCPLADSTGVSRYSATCPLVPPGGPTAPPTVTPPPPTPTTPSPTTPPTSAACTATYRTVNSWSGGFQGEVTVTAGRAAINGWTVRWDLGNGQSISQVWNGTLSTSGSTATVRNVSYNGSLAPAASTGFGFLGTGAPAIPRLTCTSP [ESM037]
< 3
